Taken from paper PMC9482650.

measured_target: FRMPD3, Q5JV73
Sequence (Q5JV73 12-100): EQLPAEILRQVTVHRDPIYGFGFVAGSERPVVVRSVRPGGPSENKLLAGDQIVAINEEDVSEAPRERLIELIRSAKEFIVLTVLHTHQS
assay_info: holdup assay
Design: key: below the threshold = too weak to quantify, mostly under pKd 3.1 to 4
study_conditions: plain residues with an end cap or a label only (N-terminal biotin on a linker: ahx)
reported_endpoint: pKd

binder | reported_endpoint | endpoint_value
SAPATLSSRA [PDLIM2, Q96JY6] | pKd | below the threshold
VNENQKEYFF [CNTNAP4, Q9C0A0] | pKd | 4.66
AKPQPVDSWV [ARVCF, O00192] | pKd | below the threshold
YNSFLSVTTV [PDZRN3, Q9UPQ7] | pKd | below the threshold
SKKNELFSNL [NHERF1, O14745] | pKd | below the threshold
KEYDDELTFF [USH1C, Q9Y6N9] | pKd | 4.7
KDECVIATEV [DLL1, O00548] | pKd | below the threshold
PKMKLNETSF [SHKBP1, Q8TBC3] | pKd | below the threshold
ADENEQVSAV [RAPGEF6, Q8TEU7] | pKd | below the threshold
HSATSVHTSV [MTMR1, Q13613] | pKd | below the threshold
